Test system: Lefty1
Assay: Lefty1 binders on small-molecule microarrays, primary screen, biochemical, small-molecule microarray, 635/667 nm fluorescence (AID 1139)
Details: small-molecule microarray binding, fluorescence 635/667; higher = more signal
Lab note: compare composite z-score against 0.8. Equal or greater, write MET. Smaller, write NOT MET.

1) COCCOC(=O)N1C(=O)[C@@]2(c3cc(C#CC4=CCCCC4)ccc31)[C@H](C(=O)N1CCc3cc(OC)c(OC)cc3C1)[C@H]1C(=O)O[C@H](c3ccccc3)[C@H](c3ccccc3)N1[C@@H]2c1ccccc1OCCO :: MET
2) O=C1N(CCS(=O)(=O)c2ccccc2)c2ccccc2C[C@@]12COC(c1ccc(OCCCO)cc1)=N2 :: NOT MET
3) COc1cc2c(cc1OC)CN(C(=O)[C@@H]1[C@H]3C(=O)O[C@H](c4ccccc4)[C@H](c4ccccc4)N3[C@H](c3ccccc3OCCO)[C@@]13C(=O)Nc1ccc(C#CCNC(N)=O)cc13)CC2 :: NOT MET
4) COc1c(C)cc(-c2cc3c(c(-c4ccc(Oc5ccccc5)cc4)n2)[Si](C(C)C)(C(C)C)OC3)cc1C :: NOT MET
5) CCOC(=O)C1=CC[C@@H](c2ccccc2)N(S(=O)(=O)c2ccc(C)cc2)[C@H]1C(=O)OCC :: NOT MET
6) CC(C)C[C@@H]1NC(=O)[C@@H]2C[C@H](C(=O)NCCCCCC[N+](C)(C)C)[C@H](c3ccc(O)cc3)N2C1=O :: MET
7) C=CCOC(=O)[C@H]1[C@@H]2C(=O)O[C@@H](c3ccccc3)[C@@H](c3ccccc3)N2[C@@H](c2ccc(OCCOC(=O)[C@@H]3C[C@@H]4C(=O)N5CCC[C@H]5C(=O)N4[C@@H]3c3ccc(O)cc3)cc2)[C@]12C(=O)Nc1ccccc12 :: MET
8) CC(C)NC(=O)[C@@H]1c2ccccc2C(=O)N(Cc2ccccc2)[C@H]1c1ccc(CO)cc1 :: NOT MET
9) Cc1ccc(S[C@]2(C(=O)NCC(C)C)CC(=O)N(Cc3ccccc3)[C@@H]2c2ccc(CO)cc2I)cc1 :: NOT MET
10) O=C(NCc1ccccc1)[C@]1(CCS(=O)(=O)c2ccccc2)N=C(c2ccc(OCCCO)cc2)O[C@@H]1c1ccccc1 :: NOT MET
11) CCCCCN1CC=CC23O[C@@H]4C=CCOC(=O)[C@@H]4[C@H]2C(=O)N(CCCO)[C@@H]3C1=O (stereo partly specified) :: NOT MET

---

Assay: basal MM1S mitochondrial membrane potential changes, profiling panel, cell-based, JC-1 fluorescence, 24 h, 100 nL compound (AID 1170); further: test concentration not given here
Conditions: higher = more signal
Consider the following molecules and their measured z-score readings.
OUTCOME_MEASURE: z-score

1. [N-]=[N+]=Nc1ccccc1C[C@]1(C(=O)NCCN2CCOCC2)N=C(c2ccc(OCCCO)cc2)O[C@H]1c1ccccc1 :: -0.777
2. C=C(COC)/C(=C/C[C@H](OC(=O)c1ccncc1)c1cccc(OCCO)c1)c1cc(C(=O)OC)ccc1OC :: 0.0566
3. C=CC[C@@]1(C(=O)NCC(O)CO)N=C(c2ccc(OCCCO)cc2)O[C@@H]1c1ccccc1N=[N+]=[N-] (some centres undefined) :: -1.17
4. COc1ccccc1CN1C(=O)c2ccccc2[C@@H](C(=O)NCCN2CCOCC2)[C@@H]1c1ccc(CO)cc1 :: -0.691
5. Cc1cc(C)cc(N2C(=O)CS(=O)(=O)C2c2cccc([N+](=O)[O-])c2)c1 (centres undefined) :: -0.744
6. Cc1ccc(S[C@]2(C(=O)NC3CC3)CC(=O)N(C3CCCCC3)[C@@H]2c2ccc(CO)cc2I)cc1 :: -1.2
7. COC(=O)[C@@]1(Cc2ccccc2N=[N+]=[N-])COC(c2ccc(OCCCO)cc2)=N1 :: -0.0849
8. COCCOC(=O)N1C(=O)[C@@]2(c3cc(C#CCNC(N)=O)ccc31)[C@H](C(=O)N1CCN(c3ncccn3)CC1)[C@H]1C(=O)O[C@H](c3ccccc3)[C@H](c3ccccc3)N1[C@@H]2c1ccccc1OCCO :: -1.04
9. CN(C)C(=O)[C@]1(CCC(=O)OC(C)(C)C)N=C(c2ccc(OCCCO)cc2)O[C@@H]1c1ccccc1N=[N+]=[N-] :: -0.325
10. CN1C(=O)C2C=CC(C(O)c3ccccn3)N(Nc3ccccc3)C2C1=O (centres undefined) :: 0.0223
11. COc1cc(C(O)C2C=CC3C(=O)N(c4ccccc4)C(=O)C3N2Nc2ccc(C#N)cc2)cc(OC)c1OC (centres undefined) :: -0.314
12. CCCN1C(=O)[C@]2(COC(c3ccc(OCCCO)cc3)=N2)Cc2ccccc21 :: 0.148
13. CCCCCCCCCCC(O)C1C=CC2C(=O)N(Cc3ccccc3)C(=O)C2N1n1cnnc1 (centres undefined) :: -0.979
14. COC(=O)[C@@]1(Cc2ccc(OC)cc2)[C@H]2c3cc(C(=O)N(C)C)n(Cc4c(OC)[nH]cc(C)c4=O)c3C[C@H]2CN1C(=O)c1ccccc1 :: -1.65
15. CC(C)N1C(=O)c2ccccc2[C@@H](C(=O)NCCCN(C)C)[C@@H]1c1ccc(CO)cc1 :: 0.499
16. [N-]=[N+]=NCc1ccccc1C[C@@]1(C(=O)N2CCOCC2)N=C(c2ccc(OCCCO)cc2)O[C@@H]1c1ccccc1CN=[N+]=[N-] :: -1.15
17. CC(C)CNC(=O)[C@@H]1c2ccccc2C(=O)N(Cc2cc(C(F)(F)F)cc(C(F)(F)F)c2)[C@H]1c1ccc(CO)cc1 :: 1.25
18. COc1ccc(C(O)C2C=CC3C(=O)N(C)C(=O)C3N2Nc2ccccc2)cc1OCc1ccccc1 (centres undefined) :: 0.0666
19. C=CCC(OC(C)=O)[C@@H]1[C@@H](N(Cc2cccc3ccccc23)C(=O)c2cccc3ccccc23)c2cc(OCCCO)ccc2N1C(=O)c1ccc2ccccc2n1 (some centres undefined) :: 0.248

src = PubChem BioAssay
